Experiment: Binding affinity to RSK4beta assessed as change in thermal denaturation at 10 uM by thermal stability shift assay
measured metric: ΔTm (°C)
Please reply with the bare figure in °C and do not write the unit itself.

[in] # return recorded ΔTm for input Cn1c2c(c3ccc(Cl)c(Cl)c31)C(C#N)C1(CCCC1)NC2=O (stereo unspecified)
[out] 0.1

[in] # return recorded ΔTm for input `Cn1c2c(Cl)c(Cl)ccc2c2cc[nH]c(=O)c21`
[out] 4

[in] # return recorded ΔTm for input Cn1c2c(c3ccc(Cl)c(Cl)c31)C(C#N)C1(CCOCC1)NC2=O (stereo unspecified)
[out] 0

[in] # return recorded ΔTm for input CCN1CCC2(CC1)NC(=O)c1c(c3ccc(Cl)c(Cl)c3n1C)C2C#N (racemic)
[out] 0.2

[in] # return recorded ΔTm for input N#CC1c2c([nH]c3c(Cl)c(Cl)ccc23)C(=O)NC12CCCCC2 (racemic)
[out] -0.2

[in] # return recorded ΔTm for input Cn1c2c(c3ccccc31)C(C#N)C(C)(C)NC2=O (stereo unspecified)
[out] 0.1
